Entries and their INHIBITION values follow.
Tested on: Plasmodium berghei
Test: Screen against P. berghei liver stage (PbLuc), transformed with Luciferase, at 2uM
Type: functional, HepG2
Conditions: tested at 2 uM
Among all 68,000 compounds or so, about 2,700 (4%) showed an effect of 50% or more. The entries come from a sample that favours strong results as a whole.
The answer should read as a number with its unit following.

Cc1nocc1C(=O)N1CCc2c(CN(C)C)nn(C)c2C1; 51.81%

Query string: Give me measured INHIBITION, please, for this compound: Cn1cc(N2CCC(NC(=O)c3ccccc3F)C2=O)cn1 (stereo unspecified)
Result string: 63.1%

Query string: Give me measured INHIBITION, please, for this compound: Cc1cc(C(=O)N2CCc3c(CN(C)C)nn(C)c3C2)[nH]n1
Result string: 28.2%

Query string: Give me measured INHIBITION, please, for this compound: Cc1nccn1-c1ccccc1CNC(=O)c1cn(CCN)nn1
Result string: -27.6%

Query string: Give me measured INHIBITION, please, for this compound: Cc1ccccc1C(=O)NC1CCN(c2cnn(C)c2)C1=O (stereo unspecified)
Result string: 52.08%

Query string: Give me measured INHIBITION, please, for this compound: CCc1cc(NCCNC(C)=O)nc(N2CCCC2)n1
Result string: -36.65%
